Reference source: ChEMBL document CHEMBL1151683

- System: Mus musculus
- assay details: Increase in catalase activity per milligram of tissue in mouse Ehrlich ascites carcinoma cells implanted in Swiss albino mouse treated after 7 days post-tumor implantation at 1.25 mM/kg, sc for 5 days
- Format: functional
endpoint name: Activity (kU)
Give a bare numeral; the unit kU is implied.

Known Activity results, listed for orientation:
- compound: "O=C1CCC(N2C(=O)c3ccccc3C2=O)C(=O)N1CSC(=S)NC1CCCCC1 (stereo unspecified)"
  readout units: "kU"
  Activity: 6.4
- compound: "O=C1CCC(N2C(=O)c3ccccc3C2=O)C(=O)N1CSC(=S)NCCN1CCCCC1 (stereo unspecified)"
  readout units: "kU"
  Activity: 7.2
- compound: "CN1CCN(NC(=S)SCN2C(=O)CCC(N3C(=O)c4ccccc4C3=O)C2=O)CC1 (stereo unspecified)"
  readout units: "kU"
  Activity: 8.2
- compound: "O=C1CCC(N2C(=O)c3ccccc3C2=O)C(=O)N1CSC(=S)N1CCCCC1 (stereo unspecified)"
  readout units: "kU"
  Activity: 7.2
- compound: "O=C1CCC(N2C(=O)c3ccccc3C2=O)C(=O)N1 (racemic) [THALIDOMIDE]"
  readout units: "kU"
  Activity: 5.8

Now look at this one.
Exercise: State the recorded Activity for this entry: CSCN1C(=O)CCC(N2C(=O)c3ccccc3C2=O)C1=O (stereo unspecified)
Key: 6.7

----------
- Test system: Ehrlich
- assay details: Antitumor activity against mouse Ehrlich ascites carcinoma cells implanted in Swiss albino mouse assessed as tumor apoptotic index treated after 7 days post-tumor implantation at 1.25 mM/kg, sc for 5 days by histopathological analysis
- Assay type: functional
endpoint name: Activity

- molecule: "O=C1CCC(N2C(=O)c3ccccc3C2=O)C(=O)N1CSC(=S)NC1CCCCC1 (stereo unspecified)"
  Activity: 0.002
- molecule: "O=C1CCC(N2C(=O)c3ccccc3C2=O)C(=O)N1 (racemic) [THALIDOMIDE]"
  Activity: 0.003
- molecule: "CSCN1C(=O)CCC(N2C(=O)c3ccccc3C2=O)C1=O (stereo unspecified)"
  Activity: 0.002

Exercise: Find the measured Activity: item O=C1CCC(N2C(=O)c3ccccc3C2=O)C(=O)N1CSC(=S)N1CCCCC1 (stereo unspecified) , target or system Ehrlich.
Key: 0.002

Exercise: Can you look up Activity on Ehrlich for O=C1CCC(N2C(=O)c3ccccc3C2=O)C(=O)N1CSC(=S)NCCN1CCCCC1 (stereo unspecified) ?
Key: 0.004

Exercise: // lookup Activity | system=Ehrlich | key= CN1CCN(NC(=S)SCN2C(=O)CCC(N3C(=O)c4ccccc4C3=O)C2=O)CC1 (stereo unspecified)
Key: 0.005
